Origin of measurements: patent US10849907B2

test: Metabolic stability in pooled human liver microsomes; format: in vitro ADME; settings: pH 7.6; pooled human liver microsomes 1 mg/mL, 1 μM compound, 37° C., NADPH; read-out: Half-life - t½ human liver microsomes
experimental_readout: half-life at 1 µM (min)

INSERT INTO results (compound, experimental_readout, inequality_sign, value_reported) VALUES
  ('Cc1ccccc1COC(=O)N1CCO[C@H](c2nc3cccnc3[nH]2)C1', 'half-life at 1 µM', '=', 14),
  ('Cc1cc(F)ccc1COC(=O)N1CCO[C@H](c2nc3cccnc3[nH]2)C1', 'half-life at 1 µM', '=', 24),
  ('O=C(OCc1ccc(C(F)F)cc1)N1CCO[C@H](c2nc3cccnc3[nH]2)C1', 'half-life at 1 µM', '>', 130),
  ('O=C(OCc1ccc(F)cc1F)N1CCO[C@H](c2nc3cccnc3[nH]2)C1', 'half-life at 1 µM', '=', 130),
  ('O=C(OCc1ccc(Cl)cc1)N1CCO[C@H](c2nc3cccnc3[nH]2)C1', 'half-life at 1 µM', '>', 130),
  ('O=C(OCc1cccc(F)c1F)N1CCO[C@H](c2nc3cccnc3[nH]2)C1', 'half-life at 1 µM', '=', 86),
  ('O=C(OCc1ccc(F)cc1)N1CCO[C@H](c2nc3cccnc3[nH]2)C1', 'half-life at 1 µM', '=', 76),
  ('O=C(OCc1c(F)cccc1F)N1CCO[C@H](c2nc3cccnc3[nH]2)C1', 'half-life at 1 µM', '>', 130),
  ('O=C(OCc1ccc(F)cc1Cl)N1CCO[C@H](c2nc3cccnc3[nH]2)C1', 'half-life at 1 µM', '=', 37),
  ('O=C(OCc1ccccc1Cl)N1CCO[C@H](c2nc3cccnc3[nH]2)C1', 'half-life at 1 µM', '=', 27),
  ('Cc1ccc(COC(=O)N2CCO[C@H](c3nc4cccnc4[nH]3)C2)cc1F', 'half-life at 1 µM', '=', 36);
